System: HEK-293 cell line
Assay: MTT assay, toxicity on normal cell line HEK-293
Assay type: cell-based, human
Conditions: Homo sapiens, HEK293, 48 h, read-out: IC50 against HEK-293
Measurement name: IC50 (µM)
A number alone suffices; assume µM.

Record lookup: for HEK-293 cell line, what IC50 belongs to CN(Cc1cnc2nc(N)nc(N)c2n1)c1ccc(C(=O)N[C@@H](CCC(=O)O)C(=O)O)cc1 [MTX, methotrexate, reference compound] ?
199

Record lookup: for HEK-293 cell line, what IC50 belongs to Cn1c(=O)c2c(nc(Oc3ccc(/C=C/C(=O)c4ccc([N+](=O)[O-])cc4)cc3)n2C)n(C)c1=O [Compound 5b] ?
419

Record lookup: for HEK-293 cell line, what IC50 belongs to Cn1c(=O)c2c(nc(Oc3ccc(C(=O)/C=C/c4c(Cl)cccc4Cl)cc3)n2C)n(C)c1=O [Compound 4j] ?
214

Record lookup: for HEK-293 cell line, what IC50 belongs to Cn1c(=O)c2c(nc(Oc3ccc(/C=C/C(=O)c4ccc(Cl)cc4)cc3)n2C)n(C)c1=O [Compound 5f] ?
240

Record lookup: for HEK-293 cell line, what IC50 belongs to Cc1ccc(/C=C/C(=O)c2ccc(Oc3nc4c(c(=O)n(C)c(=O)n4C)n3C)cc2)cc1 [Compound 4a] ?
407

Record lookup: for HEK-293 cell line, what IC50 belongs to COc1ccccc1/C=C/C(=O)c1ccc(Oc2nc3c(c(=O)n(C)c(=O)n3C)n2C)cc1 [Compound 4c] ?
451

Record lookup: for HEK-293 cell line, what IC50 belongs to COC(=O)c1ccc(/C=C/C(=O)c2ccc(Oc3nc4c(c(=O)n(C)c(=O)n4C)n3C)cc2)cc1 [Compound 4k] ?
99

Record lookup: for HEK-293 cell line, what IC50 belongs to Cn1c(=O)c2c(nc(Oc3ccc(C(=O)/C=C/c4ccc(Cl)cc4)cc3)n2C)n(C)c1=O [Compound 4e] ?
386

Record lookup: for HEK-293 cell line, what IC50 belongs to Cn1c(=O)c2c(nc(Oc3ccc(C(=O)/C=C/c4ccccc4Cl)cc3)n2C)n(C)c1=O [Compound 4i] ?
162
